- testedSystem: human GPR40 receptor (Homo sapiens, UniProt O14842)
- Sequence (O14842 whole entry): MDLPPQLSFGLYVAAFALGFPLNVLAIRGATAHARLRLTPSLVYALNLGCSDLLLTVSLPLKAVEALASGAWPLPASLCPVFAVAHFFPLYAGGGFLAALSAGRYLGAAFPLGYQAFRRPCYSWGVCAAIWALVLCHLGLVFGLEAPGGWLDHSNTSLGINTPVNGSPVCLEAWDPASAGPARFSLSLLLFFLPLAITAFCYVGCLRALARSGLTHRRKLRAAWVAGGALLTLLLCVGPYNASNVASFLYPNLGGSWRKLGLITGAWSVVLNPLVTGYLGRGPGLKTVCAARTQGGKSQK
- measurementNotes: IP1 accumulation measurements using the IPOne assay system in 1321N1 cells stably expressing human GPR40 receptor
- appliedConditions: IP1 accumulation (HTRF), 1321N1 cells stably expressing human GPR40, 1 hour stimulation at 37° C.
Reported pEC50 values for the following compounds.
On this scale, pEC50 is minus log10 of a concentration expressed in M (mol/L).

Recorded results for 3 compounds are shown here.
[
  {
    "compound": "Cc1cc(OCC2CN(S(C)(=O)=O)C2)cc(C)c1-c1ccc(F)c2c1CC[C@H]2Oc1ccc([C@H]2C[C@@H]2C(=O)O)cc1",
    "testedSystem": "human GPR40 receptor (Homo sapiens, UniProt O14842)",
    "pEC50": 8.00
  },
  {
    "compound": "CNC(=O)c1cc(C)c(-c2ccc(F)c3c2CC[C@H]3Oc2ccc([C@H]3C[C@@H]3C(=O)O)cc2)c(C)c1",
    "testedSystem": "human GPR40 receptor (Homo sapiens, UniProt O14842)",
    "pEC50": 7.89
  },
  {
    "compound": "Cc1cc(OCCCS(C)(=O)=O)cc(C)c1-c1ccc(F)c2c1CC[C@H]2Oc1ccc([C@H]2C[C@@H]2C(=O)O)cc1",
    "testedSystem": "human GPR40 receptor (Homo sapiens, UniProt O14842)",
    "pEC50": 8.05
  }
]

Input line: Please look at O=C(O)C1CC1c1ccc(O[C@@H]2CCc3c(OC(F)(F)F)cccc32)cc1F (stereo in doubt) and tell me its recorded pEC50 on human GPR40 receptor (Homo sapiens, UniProt O14842).
Output line: 7.01

Input line: Please look at Cc1cc(OC[C@H](C)CS(C)(=O)=O)cc(C)c1-c1ccc(F)c2c1CC[C@H]2Oc1ccc([C@H]2C[C@@H]2C(=O)O)cc1 and tell me its recorded pEC50 on human GPR40 receptor (Homo sapiens, UniProt O14842).
Output line: 8.22

Input line: Please look at Cc1cc(C(=O)NCC(C)(C)O)cc(C)c1-c1ccc(F)c2c1CC[C@H]2Oc1ccc([C@H]2C[C@@H]2C(=O)O)cc1 and tell me its recorded pEC50 on human GPR40 receptor (Homo sapiens, UniProt O14842).
Output line: 7.92

Input line: Please look at Cc1cc(OCC(C)(C)O)cc(C)c1-c1ccc(F)c2c1CC[C@H]2Oc1ccc([C@H]2C[C@@H]2C(=O)O)cc1 and tell me its recorded pEC50 on human GPR40 receptor (Homo sapiens, UniProt O14842).
Output line: 8.10

Input line: Please look at Cc1nc(-c2ccc(-c3c(C(F)(F)F)ccc4c3CC[C@H]4Oc3ccc([C@H]4C[C@@H]4C(=O)O)cc3)cc2)no1 and tell me its recorded pEC50 on human GPR40 receptor (Homo sapiens, UniProt O14842).
Output line: 8.52
